Tested on: HSC-T6 cells
ASSAY NOTES: Cytotoxicity on HSC-T6 cells (experiment 3)
Type: cell-based, rat
STUDY CONDITIONS: read-out: Experiment 3 IC50 (T)
Measured IC50, listed per entry.
# output: numeric value plus its unit

Completed entries (count: 5):
| COMPOUND | EXPERIMENTAL SYSTEM | RESULT |
| --- | --- | --- |
| CC(C)(O)/C=C/C(=O)[C@](C)(O)[C@H]1[C@H](O)C[C@@]2(C)[C@@H]3CC=C4[C@@H](C[C@H](O)C(=O)C4(C)C)[C@]3(C)C(=O)C[C@]12C | HSC-T6 cells | 26 µM |
| CC(=O)OC(C)(C)C=CC(=O)C(C)(O)C1C(O)CC2(C)C3CC=C4C(C=C(OC(C)C)C(=O)C4(C)C)C3(C)C(=O)CC12C (centres unmarked) | HSC-T6 cells | 2.5 µM |
| CC(C)(O)/C=C/C(=O)[C@](C)(O)[C@H]1[C@H](O)C[C@@]2(C)[C@@H]3CC=C4[C@@H](C=C(O)C(=O)C4(C)C)[C@]3(C)C(=O)C[C@]12C | HSC-T6 cells | 3.6 µM |
| CCOC1=CC2C(=CCC3C2(C)C(=O)CC2(C)C(C(C)(O)C(=O)C=CC(C)(C)O)C(O)CC32C)C(C)(C)C1=O (centres unmarked) | HSC-T6 cells | 3.5 µM |
| COC1=CC2C(=CCC3C2(C)C(=O)CC2(C)C(C(C)(O)C(=O)C=CC(C)(C)O)C(O)CC32C)C(C)(C)C1=O (centres unmarked) | HSC-T6 cells | 6.4 µM |

Shift focus to the following entry.
### Prompt Given CC(C)OC1=CC2C(=CCC3C2(C)C(=O)CC2(C)C(C(C)(O)C(=O)C=CC(C)(C)O)C(O)CC32C)C(C)(C)C1=O (centres unmarked) , respond with its IC50.
### Response 2.5 µM

* * *

ASSAY NOTES: Chromatographic hydrophobicity index (CHI) by RP-HPLC in buffered acetonitrile
Assay type: physicochemical
Parameters: key: CHI = φ0 (isocratic hydrophobicity index), = A·tR + B; ACN % scale
STUDY CONDITIONS: buffered acetonitrile pH 7.0, Eq. (3) calibrated against published CHI
Rule: 1 (yes) for CHIACN2 not less than 60, 0 (no) for anything less.

Consider the worked cases shown below.
| MOLECULE | LABEL |
| --- | --- |
| CC(C)(O)/C=C/C(=O)[C@](C)(O)[C@H]1[C@H](O)C[C@@]2(C)[C@@H]3CC=C4[C@@H](C=C(O)C(=O)C4(C)C)[C@]3(C)C(=O)C[C@]12C [I, cucurbitacin I] | 1 (yes) |
| CC(=O)OC(C)(C)/C=C/C(=O)[C@@](C)(O)[C@H]1[C@H](O)C[C@@]2(C)[C@@H]3CC=C4[C@@H](CC(=O)[C@@H](O)C4(C)C)[C@]3(C)C(=O)C[C@]12C [iso-B, iso-cucurbitacin B] | 1 (yes) |
| CC(=O)OC(C)(C)/C=C/C(=O)[C@](C)(O)[C@H]1[C@H](O)C[C@@]2(C)[C@@H]3CC=C4[C@@H](C=C(O[C@@H]5O[C@H](CO)[C@@H](O)[C@H](O)[C@H]5O)C(=O)C4(C)C)[C@]3(C)C(=O)C[C@]12C [E-Gluc, cucurbitacin E glucoside] | 0 (no) |

### Prompt Has CC(C)(O)/C=C/C(=O)[C@](C)(O)[C@H]1[C@H](O)C[C@@]2(C)[C@@H]3CC=C4[C@@H](C[C@H](O)C(=O)C4(C)C)[C@]3(C)C(=O)C[C@]12C [D, cucurbitacin D] a recorded CHIACN2 greater than or equal to 60?
### Response 0 (no)

### Prompt Has CC(C)(O)/C=C/C(=O)[C@](C)(O)C1[C@H](O)C[C@@]2(C)C3CC=C4C(C=C(O[C@@H]5O[C@H](CO)[C@@H](O)[C@H](O)[C@H]5O)C(=O)C4(C)C)[C@]3(C)C(=O)C[C@]12C (some centres unmarked) [I-Gluc, cucurbitacin I glucoside] a recorded CHIACN2 greater than or equal to 60?
### Response 0 (no)

### Prompt Has CC(=O)OC(C)(C)C=CC(=O)C(C)(O)C1C(O)CC2(C)C3CC=C4C(C=C(OC(C)C)C(=O)C4(C)C)C3(C)C(=O)CC12C (centres unmarked) [E-iPr] a recorded CHIACN2 greater than or equal to 60?
### Response 1 (yes)

* * *

ASSAY NOTES: Chromatographic hydrophobicity index (CHI) by RP-HPLC in buffered acetonitrile
Assay type: physicochemical
Parameters: key: CHI = φ0 (isocratic hydrophobicity index), = A·tR + B; ACN % scale
STUDY CONDITIONS: buffered acetonitrile pH 7.0, Eq. (3) calibrated against published CHI
PARAMETER: CHIACN2

Completed entries (count: 3):
| COMPOUND | CHIACN2 |
| --- | --- |
| CCOC1=CC2C(=CCC3C2(C)C(=O)CC2(C)C(C(C)(O)C(=O)C=CC(C)(C)OC(C)=O)C(O)CC32C)C(C)(C)C1=O (stereo not shown) [E-Et] | 93.73 |
| CCCOC1=CC2C(=CCC3C2(C)C(=O)CC2(C)C(C(C)(O)C(=O)C=CC(C)(C)O)C(O)CC32C)C(C)(C)C1=O (stereo not shown) [I-nPr] | 83.13 |
| CC(=O)OC(C)(C)/C=C/C(=O)[C@](C)(O)[C@H]1[C@H](O)C[C@@]2(C)[C@@H]3CC=C4[C@H](C[C@H](O)C(=O)C4(C)C)[C@]3(C)C(=O)C[C@]12C [B, cucurbitacin B] | 75.40 |

Shift focus to the following entry.
### Prompt Given COC1=CC2C(=CCC3C2(C)C(=O)CC2(C)C(C(C)(O)C(=O)C=CC(C)(C)O)C(O)CC32C)C(C)(C)C1=O (stereo not shown) [I-Me] , respond with its CHIACN2.
### Response 65.95

* * *

Measured cytoprotection on HepG2 cells, listed per entry.
Test system: HepG2 cells
ASSAY NOTES: cells
STUDY CONDITIONS: at 12.5% of IC50, against CCl4
Description: Experimental conditions were standardized on silybin. […] The ratio of IC50-to-EC50 (hereafter T/A) is also indicated in this table, which gives the margin between toxic and cytoprotective concentrations.
// no unit, no text: just the number

| COMPOUND | EXPERIMENTAL SYSTEM | cytoprotection on HepG2 cells |
| --- | --- | --- |
| CC(=O)OC(C)(C)C=CC(=O)C(C)(O)C1C(O)CC2(C)C3CC=C4C(C=C(OC(C)C)C(=O)C4(C)C)C3(C)C(=O)CC12C (centres unmarked) | HepG2 cells | −7.81 |
| CC(=O)OC(C)(C)/C=C/C(=O)[C@](C)(O)[C@H]1[C@H](O)C[C@@]2(C)[C@@H]3CC=C4[C@@H](C=C(O[C@@H]5O[C@H](CO)[C@@H](O)[C@H](O)[C@H]5O)C(=O)C4(C)C)[C@]3(C)C(=O)C[C@]12C [E-Gluc, cucurbitacin E glucoside] | HepG2 cells | 17.96 |
| CC(C)(O)/C=C/C(=O)[C@](C)(O)[C@H]1[C@H](O)C[C@@]2(C)[C@@H]3CC=C4[C@@H](C=C(O)C(=O)C4(C)C)[C@]3(C)C(=O)C[C@]12C | HepG2 cells | 17.50 |
| CC(C)OC1=CC2C(=CCC3C2(C)C(=O)CC2(C)C(C(C)(O)C(=O)C=CC(C)(C)O)C(O)CC32C)C(C)(C)C1=O (centres unmarked) | HepG2 cells | 4.15 |

Shift focus to the following entry.
### Prompt Given `CC(=O)OC(C)(C)/C=C/C(=O)[C@](C)(O)[C@H]1[C@H](O)C[C@@]2(C)[C@@H]3CC=C4[C@H](C[C@H](O)C(=O)C4(C)C)[C@]3(C)C(=O)C[C@]12C` , respond with its cytoprotection on HepG2 cells.
### Response 25.25

* * *

System: HepG2 cells
ASSAY NOTES: Cucurbitacins cytotoxicity on HepG2 cells (MTT viability assay)
Assay type: cell-based, human
STUDY CONDITIONS: Table 4, 24 h incubation, MTT
Response field label: string, one of Condition met (IC50 strictly below 5 µM) or Condition not met.

Consider the worked cases shown below.
| COMPOUND | EXPERIMENTAL SYSTEM | LABEL |
| --- | --- | --- |
| CC(=O)OC(C)(C)/C=C/C(=O)[C@](C)(O)[C@H]1[C@H](O)C[C@@]2(C)[C@@H]3CC=C4[C@@H](C=C(O[C@@H]5O[C@H](CO)[C@@H](O)[C@H](O)[C@H]5O)C(=O)C4(C)C)[C@]3(C)C(=O)C[C@]12C [E-Gluc, cucurbitacin E glucoside] | HepG2 cells | Condition not met |
| CC(=O)OC(C)(C)C=CC(=O)C(C)(O)C1C(O)CC2(C)C3CC=C4C(C=C(OC(C)C)C(=O)C4(C)C)C3(C)C(=O)CC12C (centres unmarked) | HepG2 cells | Condition met |

Continue with the compound presented below.
### Prompt Dear reviewer, please state whether CC(C)OC1=CC2C(=CCC3C2(C)C(=O)CC2(C)C(C(C)(O)C(=O)C=CC(C)(C)O)C(O)CC32C)C(C)(C)C1=O (centres unmarked) has IC50 strictly beneath 5 µM.
### Response Condition not met
